- test_system: Insulin receptor (Homo sapiens);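 note: each figure is a mean inhibition value from the GSK PKIS screening panel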
- condition: at 1 µM
result_type: inhibition (%)
Report the figure in % without appending any unit label.

INPUT: I have this molecule here, `COc1ccc(-c2ccncc2)cc1C(N)=O` , and I need its recorded inhibition.
OUTPUT: 6.94

INPUT: What does the data say about its inhibition? Entry: `CCn1c(-c2nonc2N)nc2c(C#CC(C)(C)O)nc(OC[C@@H](N)c3ccccc3)cc21`
OUTPUT: -0.5

INPUT: State the recorded inhibition for this entry: CC1=C(C(=O)Nc2ccc3[nH]ncc3c2)C(c2ccc(F)cc2)NC(=O)N1 (configuration not stated)
OUTPUT: 4.22

INPUT: Would you mind telling me what inhibition value was observed for `COc1ccc(-c2nn3ncccc3c2-c2ccnc(Nc3ccc(Cl)c(C(F)(F)F)c3)n2)cc1` ?
OUTPUT: 2.37

INPUT: Name the recorded inhibition for `COc1cc(C=NNc2ncnc3c2cnn3-c2ccccc2)ccc1O` .
OUTPUT: 2.58

INPUT: Param item = `CCn1c(-c2nonc2N)nc2c(C#CC(C)(C)O)nc(CN3CCCC3)cc21` ; retrieve measured inhibition.
OUTPUT: -0.45

INPUT: # input molecule: `Cc1nnc(-c2ccc(C)c(-c3ccc(C(=O)Nc4cccc(C#N)c4)cc3)c2)o1` ; wanted: its inhibition
OUTPUT: 3.89

INPUT: Tell me the measured inhibition of `CCn1c(-c2nonc2N)nc2cnc(Oc3cccc(NC(=O)c4ccc(OCCN5CCOCC5)cc4)c3)cc21` , please.
OUTPUT: 7.3

INPUT: If you can, please state the reported inhibition value of `COc1ccc(COc2ccc(Cc3cnc(N)nc3N)cc2OC)cc1` .
OUTPUT: -1

INPUT: Value lookup for inhibition; key = `CCc1cccc(NC(=O)Nc2ccc(Oc3ccc4nc(NC(=O)OC)[nH]c4c3)cc2)c1`
OUTPUT: 0.47

INPUT: Any idea what inhibition was measured for `NS(=O)(=O)c1cccc(-c2ccc3c(NC(=O)C4CC4)n[nH]c3c2)c1` ?
OUTPUT: -0.25

INPUT: Look at this molecule and give its reported inhibition. `Nc1ncnc2occ(-c3ccc(NC(=O)Nc4cccc(C(F)(F)F)c4)cc3)c12`
OUTPUT: 10.5

INPUT: Please give the measured inhibition for this molecule: `Nc1nc(-c2ccc3c(c2)C(=Cc2cc(Br)c(O)c(Br)c2)C(=O)N3)cs1`
OUTPUT: 1.87

INPUT: Using the record for `CS(=O)(=O)CCN(CC#N)Cc1ccc(-c2ccc3ncnc(Nc4ccc(OCc5cccc(F)c5)c(Cl)c4)c3c2)o1` , report its inhibition.
OUTPUT: 2.93

INPUT: Request the reported inhibition associated with `CCN1CCC(CC(=O)Nc2n[nH]c3nc(-c4cccs4)c(Br)cc23)CC1`
OUTPUT: -1.43

INPUT: What value of measured inhibition is listed for `CC(C)=Cc1cccc2c1/C(=N/Nc1ccc(S(N)(=O)=O)cc1)C(=O)N2` ?
OUTPUT: 13.6

INPUT: // lookup inhibition for CC1=C(C(=O)Nc2ccc3[nH]ncc3c2)C(c2ccc3ccccc3c2)CC(=O)N1 (configuration not stated)
OUTPUT: 4.45

INPUT: What does the data say about its inhibition? Entry: `c1cnn2ncc(-c3ccnc(Nc4ccc5c(c4)OCCO5)n3)c2c1`
OUTPUT: 58.5

INPUT: What does the record list as inhibition for `Cc1cccc(-c2n[nH]cc2-c2ccc3ncccc3n2)n1` ?
OUTPUT: 2.58

INPUT: Any idea what its inhibition is? The molecule is `COC(=O)Nc1nc2cc(Oc3cccc(NC(=O)Nc4cc(C(F)(F)F)ccc4F)c3)ccc2[nH]1`
OUTPUT: 2.78

INPUT: Given the entry `COc1ccc(-c2coc3ncnc(N)c23)cc1` , report its measured inhibition.
OUTPUT: 6.33

INPUT: What does the data say about its inhibition? Entry: `CC(=O)Nc1cccc(C#Cc2cncnc2Nc2ccc(OCc3cccc(F)c3)c(Cl)c2)n1`
OUTPUT: -3.08

INPUT: Given the molecule `Cc1nn(C)c2cc(N(C)c3ccnc(Nc4cccc(S(N)(=O)=O)c4)n3)ccc12` , what is its reported inhibition?
OUTPUT: 3.38

INPUT: What inhibition value was documented for this molecule, `O=C1Nc2ccc(C(=O)c3ccco3)cc2C1=Cc1cc(Cl)c(O)c(Cl)c1` ?
OUTPUT: 3.98

INPUT: I am curious: what inhibition value has been reported for `COc1ccccc1Nc1ncc(-c2ccccc2)o1` ?
OUTPUT: 3.48

INPUT: Quick one: inhibition for `NS(=O)(=O)c1ccc(N/N=C2\C(=O)Nc3ccc(C(=O)NCCc4c[nH]cn4)cc32)cc1` ?
OUTPUT: 32

INPUT: Query (molecule): `COc1cc2ncn(-c3cc(O[C@H](C)c4ccccc4Cl)c(C(N)=O)s3)c2cc1OC` ; field requested: inhibition
OUTPUT: 4.73

INPUT: Can you share its inhibition? I mean this molecule: `CS(=O)(=O)CCNCc1ccc(-c2ccc3ncnc(Nc4ccc(OCc5ccccc5)c(Cl)c4)c3c2)o1`
OUTPUT: 1.45

INPUT: Entry under review: `N#Cc1c(NC(=O)c2cccc3ccccc23)sc2c1CCCC2` . Reported inhibition?
OUTPUT: 6.62

INPUT: Would you mind telling me what inhibition value was observed for `Fc1cccc(COc2ccc(Nc3ncnc4sc(-c5cccs5)cc34)cc2Cl)c1` ?
OUTPUT: 3.43

INPUT: Look at this molecule and give its reported inhibition. `CCn1c(-c2nonc2N)nc2c(N3CCCC3)nccc21`
OUTPUT: -1.23

INPUT: So what does the record say about inhibition for `CCCN1CCC(Oc2cc(Nc3nc(Nc4cccc(F)c4C(N)=O)c4cc[nH]c4n3)c(OC)cc2Cl)CC1` ?
OUTPUT: 88

INPUT: Recorded inhibition of `COc1cc2ncn(-c3cc(OCc4ccccc4Cl)c(C(N)=O)s3)c2cc1OC` , please.
OUTPUT: 7.12

INPUT: Could you tell me which inhibition is on file for `O=C1NC(=O)C(N2CCc3ccccc32)=C1c1ccc(Cl)cc1` ?
OUTPUT: 5.24

INPUT: Can you share its inhibition? I mean this molecule: `CS(=O)(=O)CCNCc1ccc(-c2ccc3ncnc(Nc4ccc(OCc5cccc(F)c5)c(C(F)(F)F)c4)c3c2)o1`
OUTPUT: 6.44

INPUT: Request the reported inhibition associated with `Fc1cccc(COc2ccc(Nc3ncnc4cc(-c5ccc[nH]5)sc34)cc2Cl)c1`
OUTPUT: 6

INPUT: Requested field: inhibition. Item: `COc1cc2ncn(-c3cc(OCc4ccccc4C(F)(F)F)c(C(N)=O)s3)c2cc1OC`
OUTPUT: 2.13

INPUT: # input molecule: COc1ccc2cc(-c3c(-c4ccncc4)nc(-c4ccc([S+](C)[O-])cc4)n3C)ccc2c1 (configuration not stated) ; wanted: its inhibition
OUTPUT: 3.26

INPUT: Give the measured inhibition of `Cc1ccc(NC(=O)c2ccnc(N3CCCC3)c2)cc1-c1ccc(C(=O)NCC2CC2)cc1` .
OUTPUT: 11.3

INPUT: Please report the recorded inhibition for `Cn1cc(C=C2C(=O)Nc3cccnc32)c2ccccc21` .
OUTPUT: 20.1

INPUT: Item under review: `O=C1NC(=O)C(c2ccccc2Cl)=C1Nc1cccc(O)c1` . Reported inhibition?
OUTPUT: 4.12

INPUT: # inhibition lookup, item `NC(=O)c1cccc(Nc2nccc(Nc3cccc4[nH]ncc34)n2)c1`
OUTPUT: 16.8

The measurements presented in this section are drawn from ChEMBL document CHEMBL1961873.
